Where do these numbers come from? They come from patent US20110311485A1.

target-or-test-system: S1P1 receptors (Homo sapiens, UniProt P21453)
Sequence (P21453 whole entry): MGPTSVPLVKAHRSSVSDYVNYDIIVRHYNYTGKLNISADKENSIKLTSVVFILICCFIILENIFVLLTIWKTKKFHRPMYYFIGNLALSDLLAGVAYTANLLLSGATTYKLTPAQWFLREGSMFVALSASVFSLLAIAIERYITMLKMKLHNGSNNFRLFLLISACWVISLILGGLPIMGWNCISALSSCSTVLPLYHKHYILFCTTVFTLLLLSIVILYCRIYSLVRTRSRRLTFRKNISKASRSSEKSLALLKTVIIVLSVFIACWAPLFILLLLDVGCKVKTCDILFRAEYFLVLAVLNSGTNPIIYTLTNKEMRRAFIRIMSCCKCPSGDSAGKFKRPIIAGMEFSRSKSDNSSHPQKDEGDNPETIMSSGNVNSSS
test-name: 35S-GTPyS binding assay
condition-summary: 35S-GTPyS binding on membranes; compound 0.1 nM-10 μM; 10 μM S1P as 100% maximum efficacy; 90 min at room temperature
pEC50: −log10 of the molar value.
Reported pEC50 values are given for each entry in this list.
measure-name: pEC50

molecule="CCn1nc(-c2nc(-c3cccc4[nH]ccc34)no2)c2c1CC(C)(C)CC2 [Example 187]" assay_value=8.00
molecule="CCn1nc(-c2nc(-c3ccncc3C)no2)c2c1CC(C)(C)CC2 [Example 36]" assay_value=7.32
molecule="CC1(C)CCc2c(-c3nc(-c4ccc(C(N)=O)cc4)no3)nn(Cc3ccccc3)c2C1 [Example 21]" assay_value=7.74
molecule="Cc1cc(-c2noc(-c3nn(C)c4c3CCC(C)(C)C4)n2)cc(C)c1CCN1CCC(CC(=O)O)CC1 [Example 143]" assay_value=8.29
molecule="CCn1nc(-c2nc(-c3ccc(CCN)cc3C)no2)c2c1CC(C)(C)CC2 [Example 48]" assay_value=8.10
molecule="Cc1cc(-c2noc(-c3noc4c3CCC(C)(C)C4)n2)cc(C)c1CC(O)CO (centres unmarked) [Example 170]" assay_value=8.08
molecule="CCn1nc(-c2nc(-c3ccc(S(=O)(=O)NCCC(=O)O)cc3C)no2)c2c1CC(C)(C)CC2 [Example 117]" assay_value=7.93
molecule="CCn1nc(-c2nc(-c3cc(C)c(CC(N)=O)c(C)c3)no2)c2c1CC(C)(C)CC2 [Example 137]" assay_value=8.44
